As shown below, each of these compounds has a reported AUC(0-t) at 24 h value.
- assay_text: AUClast in Sprague-Dawley rat at 1 mg/kg, iv measured upto 24 hrs by LC-MS/MS analysis
- Assay type: ADME, organism-based
- Design: dose 1 mg/kg, time < 24 hrs, route iv
- study_conditions: in vivo
property_name: AUC(0-t) at 24 h (µM·h)

compound | property_name | value_units | meas_value
C[C@@H](NCCCc1cccc(C(F)(F)F)c1)c1cccc2ccccc12 | AUC(0-t) at 24 h | µM·h | 1.02
Cc1ccc(N2CC(CN[C@H](C)c3cccc4ccccc34)Oc3ccccc32)cc1C(=O)O.Cl (stereo partly drawn) | AUC(0-t) at 24 h | µM·h | 7
Cc1ccc([C@@H]2C[C@H](CN[C@H](C)c3cccc4ccccc34)Oc3ccccc32)cc1C(=O)O.Cl | AUC(0-t) at 24 h | µM·h | 7

Cited source for all entries: ChEMBL document CHEMBL5346964
